Test system: N2a cells
experimental_details: Cell viability assay (MTT) in uninfected N2a cells
Format: cell-based, mouse
protocol_conditions: 500 nM
recorded_metric: Cytotoxicity for uninfected neuroblastoma (N2a) cells, in words

compound	recorded_value
COc1ccc2nc3cc(Cl)ccc3c(NCCCN3CCN(CCCNc4c5ccc(Cl)cc5nc5ccc(OC)cc45)CC3)c2c1	not cytotoxic
COc1ccc2nc3cc(Cl)ccc3c(NCCOCCOCCNc3c4ccc(Cl)cc4nc4ccc(OC)cc34)c2c1	not cytotoxic
COc1ccc2nc3cc(Cl)ccc3c(NCCCCN(CCCNc3c4ccc(Cl)cc4nc4ccc(OC)cc34)C(=O)C(C)NC(=O)OC(C)(C)C)c2c1 (stereo not shown)	not cytotoxic
